Target: T1, human αvβ3 integrin on cells (human, UniProt P06756 31-1048; P05106 27-788)
T1 construct: whole, on cells; also called avb3; alpha v beta 3
T1 sequence (P06756 31-1048, chain 1 of 2): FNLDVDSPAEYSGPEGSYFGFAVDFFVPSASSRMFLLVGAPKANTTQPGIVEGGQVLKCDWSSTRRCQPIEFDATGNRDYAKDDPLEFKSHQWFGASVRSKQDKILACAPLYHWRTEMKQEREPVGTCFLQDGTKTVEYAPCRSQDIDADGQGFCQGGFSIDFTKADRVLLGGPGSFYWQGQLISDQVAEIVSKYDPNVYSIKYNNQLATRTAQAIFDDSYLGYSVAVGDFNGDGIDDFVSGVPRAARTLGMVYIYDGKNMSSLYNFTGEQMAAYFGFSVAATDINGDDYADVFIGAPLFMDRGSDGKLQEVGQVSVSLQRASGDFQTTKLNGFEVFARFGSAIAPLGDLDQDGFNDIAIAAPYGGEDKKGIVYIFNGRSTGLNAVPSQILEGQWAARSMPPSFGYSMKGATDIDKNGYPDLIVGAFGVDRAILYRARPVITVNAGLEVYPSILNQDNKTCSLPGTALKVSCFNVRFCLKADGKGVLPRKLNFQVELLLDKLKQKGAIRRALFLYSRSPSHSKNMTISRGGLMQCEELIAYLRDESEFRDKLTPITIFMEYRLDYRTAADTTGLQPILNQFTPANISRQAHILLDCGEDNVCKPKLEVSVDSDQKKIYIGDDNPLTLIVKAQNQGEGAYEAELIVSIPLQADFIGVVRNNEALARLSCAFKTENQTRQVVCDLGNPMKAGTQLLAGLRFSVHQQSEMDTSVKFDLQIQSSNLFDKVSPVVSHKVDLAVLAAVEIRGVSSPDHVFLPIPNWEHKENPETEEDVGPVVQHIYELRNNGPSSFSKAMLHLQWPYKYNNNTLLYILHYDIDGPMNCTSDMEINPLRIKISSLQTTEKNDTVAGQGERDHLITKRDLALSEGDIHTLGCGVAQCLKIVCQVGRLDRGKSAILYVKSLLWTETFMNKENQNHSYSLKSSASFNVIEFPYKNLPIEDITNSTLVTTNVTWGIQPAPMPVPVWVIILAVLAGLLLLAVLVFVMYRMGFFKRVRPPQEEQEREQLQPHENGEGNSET
T1 sequence (P05106 27-788, chain 2 of 2): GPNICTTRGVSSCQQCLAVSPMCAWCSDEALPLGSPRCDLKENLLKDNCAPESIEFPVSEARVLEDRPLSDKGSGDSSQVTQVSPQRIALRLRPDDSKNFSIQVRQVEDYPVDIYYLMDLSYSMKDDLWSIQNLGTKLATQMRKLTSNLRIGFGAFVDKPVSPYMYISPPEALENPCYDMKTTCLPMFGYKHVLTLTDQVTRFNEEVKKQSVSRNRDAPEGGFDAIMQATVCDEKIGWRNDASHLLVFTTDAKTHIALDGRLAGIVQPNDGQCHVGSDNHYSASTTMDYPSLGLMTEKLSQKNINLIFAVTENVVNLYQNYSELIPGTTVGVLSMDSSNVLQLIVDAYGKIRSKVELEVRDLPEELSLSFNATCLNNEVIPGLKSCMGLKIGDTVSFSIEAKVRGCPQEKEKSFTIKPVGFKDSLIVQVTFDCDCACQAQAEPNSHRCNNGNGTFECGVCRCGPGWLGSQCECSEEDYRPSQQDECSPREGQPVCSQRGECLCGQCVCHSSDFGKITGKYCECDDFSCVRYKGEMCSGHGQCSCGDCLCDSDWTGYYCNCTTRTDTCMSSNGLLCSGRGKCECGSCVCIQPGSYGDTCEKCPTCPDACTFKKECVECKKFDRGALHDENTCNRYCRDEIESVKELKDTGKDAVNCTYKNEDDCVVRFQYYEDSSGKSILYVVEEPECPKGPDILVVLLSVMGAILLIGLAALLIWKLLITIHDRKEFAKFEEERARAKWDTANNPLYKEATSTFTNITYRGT
Test: flow cytometry titration on K562-αvβ3 cells, anti-His detection
Listed below: Kd values for each entry.
Kindly answer with a numeric value in nM, unit omitted.

Example binders with recorded Kd:
scVEGFrgd-7H (designed binder, Soluble protein from P. pastoris with C-terminal hexahistidine tag, with or without N-terminal FLAG tag; also called scVEGF-7H) EVVKAMDVYQRSYCHPIETLVDIFQEYPDEIEYIFKPSCVPLMRCGGCCNDAGLECVPTEESNITMQIMRIKPHQGQHIGEMSFLQHNKCECRPKKDGSTSGSGKSSEGKGEVVKFMDVYQRSYCHPIETLVDIFQEYPDEIEYAFKPSCVPLMRCGGCCNDEGLECVPTEESNITMQIMRPGGRGDSAYHIGEMSFLQHNKCECRPKKDTR :: 36
scVEGFrgd-7I (designed binder, Soluble protein from P. pastoris with C-terminal hexahistidine tag, with or without N-terminal FLAG tag; also called scVEGF-7I) EVVKAMDVYQRSYCHPIETLVDIFQEYPDEIEYIFKPSCVPLMRCGGCCNDAGLECVPTEESNITMQIMRIKPHQGQHIGEMSFLQHNKCECRPKKDGSTSGSGKSSEGKGEVVKFMDVYQRSYCHPIETLVDIFQEYPDEIEYAFKPSCVPLMRCGGCCNDEGLECVPTEESNITMQIMRPSVRRGDSPASHIGEMSFLQHNKCECRPKKDTR :: 34
scVEGFrgd-7P (designed binder, Soluble protein from P. pastoris with C-terminal hexahistidine tag, with or without N-terminal FLAG tag; also called scVEGF-7P) EVVKAMDVYQRSYCHPIETLVDIFQEYPDEIEYIFKPSCVPLMRCGGCCNDAGLECVPTEESNITMQIMRIKPHQGQHIGEMSFLQHNKCECRPKKDGSTSGSGKSSEGKGEVVKFMDVYQRSYCHPIETLVDIFQEYPDEIEYAFKPSCVPLMRCGGCCNDEGLECVPTEESNITMQIMRPASRGDSPPHIGEMSFLQHNKCECRPKKDTR :: 37

The reported value for scVEGFrgd-7B (designed binder, Soluble protein from P. pastoris with C-terminal hexahistidine tag, with or without N-terminal FLAG tag) EVVKAMDVYQRSYCHPIETLVDIFQEYPDEIEYIFKPSCVPLMRCGGCCNDAGLECVPTEESNITMQIMRIKPHQGQHIGEMSFLQHNKCECRPKKDGSTSGSGKSSEGKGEVVKFMDVYQRSYCHPIETLVDIFQEYPDEIEYAFKPSCVPLMRCGGCCNDEGLECVPTEESNITMQIMRPHDRGDAGVHIGEMSFLQHNKCECRPKKDTR in terms of Kd is 140
